tested system: rat alpha-synuclein (rat, UniProt P37377 1-140)
assay text: direct ELISA on coated antigen;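 also: plates coated with recombinant human, mouse or rat alpha-synuclein, purified antibody titrated 10 µg/mL down to 0.6 ng/mL for 1 h, bound antibody detected by anti-rat HRP with TMB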
attribute measured: pEC50
Worth noting: pEC50 values are minus log10 of concentrations stated in mol/L.

{"binder": "18B4 (antibody, IgG2b, V domains shown, also called clone 18B4) VH: EVQLVESGGGLVQPGRSLKLSCAASGFTFSSFAMAWVRQAPKKGLEWVATITSGGSKTYYPDSVKGRFTISRDNAKSTLYLQMDSLRSEDTATYYCAKGYFDYWGQGVMVTVSS VL: DVVLTQTPPTLSATIGQSVSISCRSSQSLLHSNGNTYLHWLLQRPGQSPQLLIYLVSRLESGVPNRFSGSGSGTDFTLKISGVEAEDLGVYYCVQGTHAPLTFGSGTKLEIK", "pEC50": 9.52}

In: Query: pEC50; subject: 22E11 (antibody, IgG1, V domains shown, also called clone 22E11) VH: AVQLVESGGGLVQPKESLKISCAASGFTFSTAAMYWVRQAPGKGLEWVTRIRTKPNNYATYYADSVKGRFTISRDDSKSMVYLQMDNLKTEDTAMYYCTADYYDGTPFAYWGQGTLVTVSS VL: AVVMTQTPVSLSVSLGGQVSISCRSSQSLVHNNGITYLSWYLQKPGQSPQLPIYKVSNRFSGFSDRFSGGGSGTDFTLKISRVEPDDLGLYYCGQGTQYPYTFGAGTKLELK
Out: 9.00
